target: 5-HT4 receptor (Cavia porcellus); construct: crude synapse membrane sample was prepared from guinea pig striatum; from tissue; host or cells: guinea pig striatum, crude synaptic membranes; test: biochemical; type: binding, guinea pig; conditions: [3H]GR113808 0.1 nM, guinea pig striatum membranes, 37°C, 30 min; IC50 converted to Ki; read-out: Affinity for receptor (Ki value, nM) 5-HT4
Sequence (O70528 whole entry): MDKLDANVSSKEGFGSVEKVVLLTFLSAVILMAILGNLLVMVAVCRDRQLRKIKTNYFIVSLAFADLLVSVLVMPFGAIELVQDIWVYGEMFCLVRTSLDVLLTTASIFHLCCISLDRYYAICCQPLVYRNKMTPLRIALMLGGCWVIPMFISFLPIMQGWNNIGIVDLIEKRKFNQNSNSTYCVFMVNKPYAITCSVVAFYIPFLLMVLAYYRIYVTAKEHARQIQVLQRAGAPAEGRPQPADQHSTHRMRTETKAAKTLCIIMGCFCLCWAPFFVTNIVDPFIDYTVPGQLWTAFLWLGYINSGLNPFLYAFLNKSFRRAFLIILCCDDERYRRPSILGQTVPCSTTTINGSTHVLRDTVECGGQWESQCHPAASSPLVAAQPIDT
Where a name gives a salt, the structure may show the parent alone.
Consider the following compounds; for each one, report its Ki.
Numbers only, in nM.

// known answers, use as guide
compound=COc1cc(N)c(Cl)cc1C(=O)NCC1CCN(CCCCCC(=O)c2ccc(O)cc2)CC1 endpoint_value=1.5
compound="COc1cc(N)c(Cl)cc1C(=O)NCC1CCN(CCCCCC(=O)c2cccc3ccccc23)CC1 [Example 81, hydrochloride]" endpoint_value=0.5
compound=COc1cc(N)c(Cl)cc1C(=O)NCC1CCN(CCCCCCC(=O)c2ccccc2)CC1 endpoint_value=1.5

# batch size: 4; output Ki per entry
1. COc1cc(N)c(Cl)cc1C(=O)NCC1CCN(CCCCCNCc2ccc3ccccc3c2)CC1
2. COc1ccc(C(=O)CCCCCN2CCC(CNC(=O)c3cc(Cl)c(N)cc3OC)CC2)cc1F
3. COc1cc(N)c(Cl)cc1C(=O)NCC1CCN(CCCCCSCc2ccccc2)CC1
4. CCN(CCCCCN1CCC(CNC(=O)c2cc(Cl)c(N)cc2OC)CC1)Cc1ccc(F)cc1

[0.97, 5.1, 1.6, 0.94]

Entry CCCN(CCCCCN1CCC(CNC(=O)c2cc(Cl)c(N)cc2OC)CC1)Cc1ccccc1 has what Ki?
0.84
